Catalogue of compounds with associated cell viability
# System: P12-Ichikawa
# runDescription: cell viability relative to DMSO control; higher = less cytotoxic
# testSettings: RPMI 5 mM glucose + 10% FBS; 48 h; 1.71 µM

# compound, valueReported
records = [
    ("COc1ccccc1[C@H](c1cccc2ccccc12)[C@@](C)(C#N)C(=O)N1CCC(c2cccc(C(F)(F)F)c2)CC1", "92.4%"),
    ("CC(C)C1CCC(C(=O)N[C@H](Cc2ccccc2)C(=O)O)CC1 (some centres undefined)", "88.3%"),
]

# input compound: CC(C)(N)c1ccc(-c2nc3ccccc3nc2-c2ccccc2)cc1 ; wanted: its cell viability 6.88%
